The measured values listed here are drawn from patent US12053473B2.

target: SOS1 and KRAS G12D (protein-protein interaction) (Homo sapiens, UniProt Q07889); assay: KRAS::SOS1 AlphaScreen binding assay; conditions: read-out: IC50 (SOS1)
The label Satisfied is reserved for IC50 strictly under 10 nM; Not satisfied covers values equal to or above it.

These solved cases illustrate the format of a correct answer.
- compound: "Cc1nc(N[C@H](C)c2cccc(C(F)(F)F)c2)c2cc([C@H]3CC[C@H](C(=O)N4CC(F)C4)CC3)ccc2n1"
  system.under.test: "SOS1 and KRAS G12D (protein-protein interaction) (Homo sapiens, UniProt Q07889)"
  class.assignment: "Not satisfied"
- compound: "Cc1nc(N[C@H](C)c2cc(N)cc(C(F)(F)F)c2)c2cc(-c3cnn(CC(=O)N(C)C)c3)ccc2n1"
  system.under.test: "SOS1 and KRAS G12D (protein-protein interaction) (Homo sapiens, UniProt Q07889)"
  class.assignment: "Satisfied"
- compound: "Cc1nc(N[C@H](C)c2cc(N)cc(C(F)(F)F)c2)c2cc(C3CCS(=O)(=O)CC3)ccc2n1"
  system.under.test: "SOS1 and KRAS G12D (protein-protein interaction) (Homo sapiens, UniProt Q07889)"
  class.assignment: "Satisfied"
- compound: "CC(=O)N1CCC(c2cc3c(N[C@H](C)c4cccc(C)c4)nc(C)nc3cc2C)CC1"
  system.under.test: "SOS1 and KRAS G12D (protein-protein interaction) (Homo sapiens, UniProt Q07889)"
  class.assignment: "Not satisfied"

In: Hi there! Is IC50 for "COc1cc2nc(C)nc(N[C@H](C)c3cc(N)cc(C(F)(F)F)c3F)c2cc1C1CCS(=O)(=O)CC1" below 10 nM, do you know?
Out: Satisfied

In: hey, is IC50 for "Cc1nc(N[C@H](C)c2cc(N)cc(C(F)(F)F)c2F)c2cc(C3CCS(=O)(=O)CC3)ccc2n1" lower than 10 nM or not?
Out: Satisfied

In: Here's an entry: CONC(=O)CC(C)c1cc2c(N[C@H](C)c3cccc(C(F)(F)F)c3)nc(C)nc2cc1C (some centres unmarked) . Is its IC50 below 10 nM?
Out: Satisfied

In: Given the entry "COCC(=O)N1CC=C(c2cc3c(N[C@H](C)c4cccc(C(F)(F)CO)c4)nc(C)nc3cc2OC)CC1" , would its reported IC50 be below 10 nM?
Out: Satisfied

In: Does this compound meet the criterion IC50 < 10 nM? COc1cc2nc(C)nc(N[C@H](C)c3cccc(C(F)(F)CO)c3)c2cc1C1=CCC(C(=O)N(C)C)CC1 (some centres unmarked)
Out: Satisfied

In: Say whether its IC50 is strictly beneath 10 nM. Entry: "COCCN(C)C(=O)[C@H]1CC[C@H](c2cc3c(N[C@H](C)c4cc(N)cc(C(F)(F)F)c4)nc(C)nc3cc2OC)CC1"
Out: Satisfied

In: is_below(IC50, 10 nM) for "COc1cc2nc(C)nc(N[C@H](C)c3cccc(C(F)(F)CO)c3)c2cc1C1=CCN(C(C)=O)CC1" ?
Out: Satisfied

In: In the record for "COC1CN(C(=O)[C@H]2CC[C@H](c3ccc4nc(C)nc(N[C@H](C)c5cccc(C(F)(F)F)c5)c4c3)CC2)C1" , is IC50 less than 10 nM?
Out: Not satisfied

----------
target: SOS1 and KRAS G12D (protein-protein interaction) (Homo sapiens); assay: KRAS::SOS1 AlphaScreen binding assay; settings: read-out: IC50 (SOS1); assay buffer without EDTA (values not marked with an asterisk)
Please provide measured IC50 for the entries that follow.
Give bare numbers, in nM.

- compound: "COc1cc2nc(C)nc(N[C@H](C)c3cccc(C(F)(F)F)c3)c2cc1C1(O)CCC(C(=O)N(C)C[C@H](C)O)CC1 (some centres unmarked) [I-73]"
  IC50 [nM]: 41

In: Supply measured IC50 of Cc1nc(N[C@H](C)c2cccc(C(F)(F)F)c2C)c2cc(C3(O)CCC(O)CC3)ccc2n1 (some centres unmarked) [I-63] in your reply.
Out: 9

----------
biological target: SOS1 and KRAS G12D (protein-protein interaction) (Homo sapiens); test: KRAS::SOS1 AlphaScreen binding assay; conditions: assay buffer without EDTA (values not marked with an asterisk); read-out: IC50 (SOS1)
Threshold-based label: IC50 under 20 nM gives 1, IC50 not under 20 nM gives 0.

Below are worked cases with known answers.
- compound.string: "Cc1cccc([C@@H](C)Nc2nc(C)nc3c(C)cc(C4CCN(C(C)C)CC4)cc23)c1"
  system.under.test: "SOS1 and KRAS G12D (protein-protein interaction) (Homo sapiens)"
  class.assignment: 1
- compound.string: "CC(=O)N1CC[C@H](Oc2cc3c(N[C@H](C)c4cc(N)cc(C(F)(F)F)c4)nc(C)nc3cc2F)C1"
  system.under.test: "SOS1 and KRAS G12D (protein-protein interaction) (Homo sapiens)"
  class.assignment: 1
- compound.string: "COCC(=O)N1CCC(O)(c2cc3c(N[C@H](C)c4cccc(C(F)(F)F)c4)nc(C)nc3cc2OC)CC1"
  system.under.test: "SOS1 and KRAS G12D (protein-protein interaction) (Homo sapiens)"
  class.assignment: 1
- compound.string: "CC(=O)N1CC[C@H](Oc2cc3c(N[C@H](C)c4cc(N)cc(C(F)(F)F)c4)nc(C)nc3cc2C)C1"
  system.under.test: "SOS1 and KRAS G12D (protein-protein interaction) (Homo sapiens)"
  class.assignment: 1
- compound.string: "CC(=O)N1CCC(O)(c2ccc3nc(C)nc(N[C@H](C)c4cccc(C(F)(F)F)c4)c3c2)CC1"
  system.under.test: "SOS1 and KRAS G12D (protein-protein interaction) (Homo sapiens)"
  class.assignment: 1
- compound.string: "Cc1cccc([C@@H](C)Nc2nc(C)nc3cc(C)c(C4CCN(C(C)C)CC4)cc23)c1"
  system.under.test: "SOS1 and KRAS G12D (protein-protein interaction) (Homo sapiens)"
  class.assignment: 0
- compound.string: "Cc1cccc([C@@H](C)Nc2nc(C)nc3c(C)cc(C4CCN(CC(=O)O)CC4)cc23)c1"
  system.under.test: "SOS1 and KRAS G12D (protein-protein interaction) (Homo sapiens)"
  class.assignment: 0

Now, please, on to the next compound.
In: Find out if reported IC50 for "Cc1cccc([C@@H](C)Nc2nc(C)nc3ccc(C4CCOCC4)cc23)c1" is less than 20 nM
Out: 0

----------
target: SOS1 and KRAS G12D (protein-protein interaction) (Homo sapiens); test: KRAS::SOS1 AlphaScreen binding assay; conditions: assay buffer without EDTA (values not marked with an asterisk); read-out: IC50 (SOS1)
pIC50: −log10 of the molar value.
Give fulfilled when the value for pIC50 is at least 8. Give not fulfilled when it is less.

Please review the entries below; each comes with its answer.
- compound: "CC(=O)O[C@H]1CC[C@](O)(c2ccc3nc(C)nc(N[C@H](C)c4cccc(C(F)(F)F)c4)c3c2)CC1 [I-67]"
  class.assignment: "not fulfilled"
- compound: "COc1cc2nc(C)nc(N[C@H](C)c3cccc(C4(O)COC4)c3)c2cc1C1=CCN(C(C)=O)CC1 [I-17]"
  class.assignment: "not fulfilled"
- compound: "CC(=O)N1CCC2(CC1)CC(O)(c1ccc3nc(C)nc(N[C@H](C)c4cccc(C(F)(F)F)c4)c3c1)C2 [I-51]"
  class.assignment: "not fulfilled"
- compound: "COc1cc2nc(C)nc(N[C@H](C)c3cccc(C(F)(F)F)c3)c2cc1-c1ccc(C(=O)N(C)C)cn1 [I-191]"
  class.assignment: "not fulfilled"
- compound: "COc1cc2nc(C)nc(N[C@H](C)c3cccc(C(F)(F)F)c3)c2cc1-c1ccc(C(=O)N(C)C)nc1 [I-189]"
  class.assignment: "not fulfilled"

In: Hi team, for COc1cc2nc(C)nc(N[C@H](C)c3cccc(C(F)(F)F)c3F)c2cc1C1(O)CCC(C(=O)N(C)C)CC1 (stereo partly drawn) [I-77] , is the recorded pIC50 at or above 8?
Out: fulfilled

In: Quick check, pIC50 >= 8? COCC(=O)N1CCC(O)(c2cc3c(N[C@H](C)c4cccc(C(F)(F)F)c4F)nc(C)nc3cc2OC)CC1 [I-46]
Out: fulfilled

----------
I'd be grateful if you could share measured IC50 for these entries.
target: SOS1 and KRAS G12D (protein-protein interaction) (Homo sapiens, UniProt Q07889); test: KRAS::SOS1 AlphaScreen binding assay
Give bare numbers, in nM.

Use these answered entries as a reference point.
- compound.string: "COc1cc2nc(C)nc(N[C@H](C)c3cccc(C(F)(F)F)c3F)c2cc1[C@]1(O)CC[C@@H](O)CC1"
  system.under.test: "SOS1 and KRAS G12D (protein-protein interaction) (Homo sapiens, UniProt Q07889)"
  observable: "IC50"
  result.number: 6
- compound.string: "COc1cc2nc(C)nc(N[C@H](C)c3cccc(C(F)(F)F)c3)c2cc1[C@]1(O)CC[C@@H](O)CC1"
  system.under.test: "SOS1 and KRAS G12D (protein-protein interaction) (Homo sapiens, UniProt Q07889)"
  observable: "IC50"
  result.number: 10
- compound.string: "COc1cc2nc(C)nc(N[C@H](C)c3cccc(C(F)(F)F)c3)c2cc1[C@]1(O)CC[C@@H](C(=O)N(C)CCO)CC1"
  system.under.test: "SOS1 and KRAS G12D (protein-protein interaction) (Homo sapiens, UniProt Q07889)"
  observable: "IC50"
  result.number: 7
- compound.string: "Cc1nc(N[C@H](C)c2cccc(C(F)(F)F)c2)c2cc([C@]3(O)CC[C@@H](O)CC3)ccc2n1"
  system.under.test: "SOS1 and KRAS G12D (protein-protein interaction) (Homo sapiens, UniProt Q07889)"
  observable: "IC50"
  result.number: 10
- compound.string: "Cc1nc(N[C@H](C)c2cccc(C(F)(F)F)c2F)c2cc([C@]3(O)CC[C@@H](O)CC3)ccc2n1"
  system.under.test: "SOS1 and KRAS G12D (protein-protein interaction) (Homo sapiens, UniProt Q07889)"
  observable: "IC50"
  result.number: 8
- compound.string: "COCCN1CCN(C(=O)[C@H]2CC[C@@H](c3cc4c(N[C@H](C)c5cc(N)cc(C(F)(F)F)c5F)nc(C)nc4cc3OC)CC2)CC1"
  system.under.test: "SOS1 and KRAS G12D (protein-protein interaction) (Homo sapiens, UniProt Q07889)"
  observable: "IC50"
  result.number: 18
- compound.string: "Cc1nc(N[C@H](C)c2cccc(C(F)(F)F)c2)c2cc([C@]3(O)CC[C@H](O)CC3)cc(C)c2n1"
  system.under.test: "SOS1 and KRAS G12D (protein-protein interaction) (Homo sapiens, UniProt Q07889)"
  observable: "IC50"
  result.number: 20

--- query ---
In: Using the record for "Cc1nc(N[C@H](C)c2cccc(C(F)(F)F)c2)c2cc([C@]3(O)CC[C@H](O)CC3)ccc2n1" , state its measured IC50.
Out: 20
